ASSAY_DETAILS: activity coefficient (dimensionless); of the first substance listed, at infinite dilution; xn = mol fraction of the nth substance listed
RECORDED_CONDITIONS: 318.15 K; 100 kPa; Liquid; Chromatography; x1 = 0
As shown below, each of these compounds has a reported activity coefficient value.

| COMPOUND | activity coefficient |
| --- | --- |
| Cc1ccc(C)cc1 [1,4-dimethylbenzene] + CC(O)C(=O)[O-].CC[N+]1(C)CCCC1 | 10 |
| CC(C)=O [acetone] + CC(O)C(=O)[O-].CC[N+]1(C)CCCC1 | 1.93 |
| CCC[N+](=O)[O-] [1-nitropropane] + CC(O)C(=O)[O-].CC[N+]1(C)CCCC1 | 1.75 |
